# TARGET_SYSTEM: Rap guanine nucleotide exchange factor 3 (Homo sapiens) (UniProt O95398)
# Sequence (O95398 whole entry, looked up): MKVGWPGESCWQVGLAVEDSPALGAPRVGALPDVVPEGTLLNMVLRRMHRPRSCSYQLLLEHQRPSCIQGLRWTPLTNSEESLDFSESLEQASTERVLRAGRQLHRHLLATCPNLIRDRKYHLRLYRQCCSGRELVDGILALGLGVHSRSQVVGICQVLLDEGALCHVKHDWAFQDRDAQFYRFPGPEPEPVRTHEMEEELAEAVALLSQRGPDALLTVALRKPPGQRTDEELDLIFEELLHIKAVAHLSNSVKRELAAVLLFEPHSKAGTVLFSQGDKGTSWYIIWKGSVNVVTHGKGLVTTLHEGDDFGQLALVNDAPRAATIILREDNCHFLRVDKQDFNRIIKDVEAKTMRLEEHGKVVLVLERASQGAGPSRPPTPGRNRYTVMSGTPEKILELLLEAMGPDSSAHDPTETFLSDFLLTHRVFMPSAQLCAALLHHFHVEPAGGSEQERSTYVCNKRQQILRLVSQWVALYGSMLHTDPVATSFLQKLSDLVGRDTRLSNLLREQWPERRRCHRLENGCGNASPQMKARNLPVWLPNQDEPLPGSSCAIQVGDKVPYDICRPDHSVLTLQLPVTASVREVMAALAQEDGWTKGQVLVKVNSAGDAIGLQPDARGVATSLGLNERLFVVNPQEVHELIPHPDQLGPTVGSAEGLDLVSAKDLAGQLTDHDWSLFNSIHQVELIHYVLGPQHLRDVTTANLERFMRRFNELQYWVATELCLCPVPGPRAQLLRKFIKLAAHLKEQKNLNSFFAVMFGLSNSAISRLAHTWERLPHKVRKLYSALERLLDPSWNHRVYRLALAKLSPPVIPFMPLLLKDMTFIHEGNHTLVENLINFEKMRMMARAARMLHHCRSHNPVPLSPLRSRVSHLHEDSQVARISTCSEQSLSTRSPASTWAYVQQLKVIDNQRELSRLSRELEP
# METHOD: Confirmatory qHTS for antagonist of cAMP-regulated guanine nucleotide exchange factor 3 (EPAC1) (AID 1645880); note: nearly all actives have a fitted effect of over 55% in size
# CONDITION_LABEL: EPAC1 Rap1B-BODIPY-GDP exchange, fluorescence; series mostly up to 115 µM
Results filed as inconclusive are left out. The source made the active and inactive calls. Calls come from the whole dose curve; as a rule, active = well fitted inhibition curve with a large enough effect; inconclusive = small, poorly fitted or top-dose-only effect; inactive = no such curve, though single readings can be large or run the other way.
Answer with one of the outcomes 1 = active, 0 = inactive

Study these solved cases before continuing.
>>> print(df.to_string())
                                   molecule                             target_system  assigned_class
0  O=[N+]([O-])c1ccc(Cc2ccccn2)c([N+](=O)[O-])c1  Rap guanine nucleotide exchange factor 3 (Homo sapiens) (UniProt O95398)               0
1  CCCOC(=O)c1c(-c2ccccc2)c(-c2ccccc2)nn(C)c1=O  Rap guanine nucleotide exchange factor 3 (Homo sapiens) (UniProt O95398)               0
2  O=C(/C=C/c1ccc([N+](=O)[O-])cc1)Nc1cccc(C(=O)Nc2ccccc2C(=O)O)c1  Rap guanine nucleotide exchange factor 3 (Homo sapiens) (UniProt O95398)               1
3  CCOC(=O)c1c(C)nc2sc(C(N)=O)c(N)c2c1-c1ccccc1  Rap guanine nucleotide exchange factor 3 (Homo sapiens) (UniProt O95398)               0

Data request: For Cc1ccccc1N(CC(=O)NC1CCCC1)C(=O)c1csnn1 , which call appears in the assay record?
Data returned: 0

Data request: Status in this test for COc1cc(/C=N/NC(=O)c2ccccn2)ccc1OC(=O)c1ccc(Br)cc1 ?
Data returned: 0

Data request: Per the assay record, what outcome was assigned to Cc1cc(C)c2nc(C)cc(Nc3ccc(C(=O)NCCO)cc3)c2c1 ?
Data returned: 0

Data request: // return assay outcome for COc1ccc(NC(=O)C2=NN(c3ccccc3)C(=O)CC2)cn1
Data returned: 0

Data request: Which result was noted for this molecule in the test: O=C(C[N+]12CN3CN(CN(C3)C1)C2)c1ccc(I)cc1
Data returned: 0

Data request: Called result for Cc1ccc(S(=O)(=O)N2[C@@H](c3ccc(Cl)c(Cl)c3)C(C(=O)O)=C[C@H]2CC2CCCC2)cc1
Data returned: 1

Data request: Called result for COc1cc(/C=C2\SC(=O)NC2=O)ccc1Oc1ccc([N+](=O)[O-])cc1[N+](=O)[O-]
Data returned: 1

Data request: Assay outcome for Cc1nc(Cl)sc1C(=O)NC(C)c1ccc(Cl)cc1 (stereo unspecified) : what was it?
Data returned: 0

Data origin, for the record: PubChem BioAssay (NCATS)
